Tested on: NCI-H226 lung
Assay: NCI-60 one-dose screen, 48 h (100 = growth as untreated, 0 = no growth, -100 = all killed)
Settings: 10 µM unless noted
Procedure: Growth inhibition of the NCI-H226 human Non-Small Cell Lung tumor cell line is measured as a screen for anti-cancer activity. Cells are grown in 96 well plates and exposed to the test compound for 48 hours. Compounds are tested at a single concentration, which is 10^-5 M for most compounds. The reported endpoint is percent growth (GI% or GIPRCNT), where numbers from 0 - 100% represent growth inhibition, and numbers from -100% - 0 represent cell death. […]
This is part of a sample that, as a whole, favours compounds with a hit. Of some 83,000 tested, about 20% had one in any assay.
Recorded growth determines the group label, using bucket A (below 40%), bucket B (40% to below 90%), bucket C (90% or more)

Examples from the recorded data:
chemical_string=CC/C(=C(/c1ccc(Cl)cc1)c1ccc(OCCN2CCCCC2)cc1)c1ccc(OC)cc1 discrete_label="bucket B"
chemical_string=COc1ccc2[nH]c(C(=O)N3CCN(C(=O)OCc4ccc5c(Cl)cc(Cl)c(O)c5n4)CC3)cc2c1 discrete_label="bucket A"
chemical_string=CS(=O)(=O)Nc1cc(-c2ccc3ncnc(Nc4ccc5c(cnn5Cc5ccc(F)cc5)c4)c3c2)cnc1Cl discrete_label="bucket B"

Request: Entry COc1ccc(Nc2nc(-c3cc(O)c(C)c(C)c3O)cs2)cc1 belongs to which category?
Result: bucket C

Request: Further, for Cc1c2cnccc2c(C)c2c1c1cc(C#N)ccc1n2C ?
Result: bucket A

Request: Further, for O=C(CSC(=S)n1cnnc1)NC(=O)c1ccccc1 ?
Result: bucket C

Request: Further, for O=C(O)CCN1C(=O)/C(=C/C(Cl)=C/c2ccccc2)SC1=S ?
Result: bucket A

Request: Further, for COC(=O)c1cc(N=C2NC(=O)/C(=C/C=C/c3ccccc3)S2)ccc1O ?
Result: bucket A

Request: Further, for O=C(NNC(=O)c1ccc(NC(=O)c2ccccn2)cc1)Nc1ccc([N+](=O)[O-])cc1 ?
Result: bucket C

---

What growth was measured for each of the following?
system: A498 renal; test: NCI-60 one-dose screen, 48 h (100 = growth as untreated, 0 = no growth, -100 = all killed); conditions: 10 µM unless noted
The panel holds about 83,000 compounds, 20% with a hit somewhere; the sample as a whole holds those more often.
Answers are plain numbers, in %.

Example entries and their recorded answers appear below.
molecule=CCOCCNC1=C(Cl)C(=O)c2ccccc2C1=O result_units=% observed=94.4
molecule=Cc1cccc(/C=C2\CN(C(=O)OC(C)(C)C)C/C(=C\c3cccc(C)c3)C2=O)c1 result_units=% observed=93.9
molecule=c1ccc(-c2oc(-c3ccccc3)c(CN3CCCCC3)c2CN2CCCCC2)cc1 result_units=% observed=17.5
molecule="CCn1cc(C(=O)O)c(=O)c2cc(F)c(N3CCN(CC(=O)Nc4ccc(S(=O)(=O)Nc5nccc(C)n5)cc4)C(C)C3)c(F)c21 (configuration not stated)" result_units=% observed=111
molecule=COc1ccc2cc1Oc1ccc(cc1)C[C@H]1c3c(cc4c(c3Oc3cc5c(cc3OC)CCN(C)[C@@H]5C2)OCO4)CCN1C result_units=% observed=32.2
molecule="CCCCCCCCCCCCCCCCOCCCOP(=O)(O)C1CCCN(O)C1=O (configuration not stated)" result_units=% observed=1.39
molecule=CC(=O)Oc1ccc(C)cc1C result_units=% observed=87.4
molecule=CCOC(=O)c1nn(-c2ccc(S(N)(=O)=O)cc2)c2nc(C)cc(=O)n12 result_units=% observed=88.3
molecule=O=C(CSc1oc(-c2ccccc2)nc1S(=O)(=O)c1ccccc1)Nc1ccc(F)cc1 result_units=% observed=82.6
molecule=N#C/C(=C\c1c(-c2ccccc2)[nH]c2ccccc12)C(N)=O result_units=% observed=73.7

Give growth for each of the items listed below.
1. COC1=CC(c2ccc[nH]2)=N/C1=C\c1[nH]c(C)c(CC(=O)OCc2ccccc2)c1CCC(=O)OCc1ccccc1
2. CC1CCN(CCOc2ccc(CNc3ccc4nc(CCC5CCCCC5)[nH]c4c3)cc2)CC1
3. COC(=O)c1c2c(c(C)[n+]([O-])c1C)C(=O)C(NCc1cccc(OC)c1)=CC2=O
4. COCCNC(=O)Nc1ccc2nc(-c3cccs3)c(-c3cccs3)nc2c1

Result:
1: -54.1; 2: 2.94; 3: 108; 4: 33.7

---

tested on: SN12C renal; assay: NCI-60 one-dose screen, 48 h; settings: 10 µM unless noted
Compounds without any hit were thinned out: in the full panel of roughly 83,000, 20% have a hit. The source made the active and inactive calls. How the source made its calls: active means growth percent below 10; inactive means the rest.
Hello, when you answer, please use one of the following outcomes: yes (1) = active, no (0) = inactive

Examples from the recorded data:
compound=Nc1nc(N)c(-c2ccc(Cl)c(Cl)c2)c(CBr)n1 discrete_label="no (0)"
compound="COc1cc2c(cc1OC)C(C)N(S(N)(=O)=O)CC2 (stereo not drawn)" discrete_label="no (0)"

Request: Write down the call the test reported for this compound. Item: O=C(/C=C/c1cn(-c2ccccc2)nc1-c1ccc(Cl)cc1)c1ccc(F)cc1
Result: no (0)

Request: Further, for CCc1ccccc1-n1c(-c2ccc(OC)cc2)cc(-c2ccc(OC)cc2)c(C#N)c1=O ?
Result: no (0)

---

What growth was measured for each of the following?
System: SF-268 CNS
Test: NCI-60 one-dose screen, 48 h (100 = growth as untreated, 0 = no growth, -100 = all killed)
Conditions: 10 µM unless noted
Procedure: Cells are grown in 96 well plates and exposed to the test compound for 48 hours. Compounds are tested at a single concentration, which is 10^-5 M for most compounds. The reported endpoint is percent growth (GI% or GIPRCNT), where numbers from 0 - 100% represent growth inhibition, and numbers from -100% - 0 represent cell death. For example, a value of 40 represents 60% growth inhibition. A value of 0 means no net growth occurred over the course of the experiment. […]
The panel holds about 83,000 compounds, 20% with a hit somewhere; the sample as a whole holds those more often. The source made the active and inactive calls. The calls were made as follows: active = growth percent below 10; inactive = the rest.

Example entries and their recorded answers appear below.
molecule="CC1OC(n2c3ccccc3c3c4c(c5c6ccccc6[nH]c5c32)C(=O)N(CCN2CCCC2)C4=O)CC(O)C1O (centres undefined)" reported_property=growth observed="37% (inactive)"
molecule=CCCc1c(OC(=O)c2ccccc2)nc2[nH]c(=O)sc2c1C reported_property=growth observed="97.1% (inactive)"
molecule=Cc1[nH]c(C(=O)Nc2ccc(C(=O)N3CCN(c4cc5c(cc4F)c(=O)c(C(=O)O)cn5C4CC4)CC3)cc2OC(C)C)c(Cl)c1Cl reported_property=growth observed="78.1% (inactive)"
molecule=Cc1cccc(CNc2c3ccccc3nc3ccccc23)c1 reported_property=growth observed="52% (inactive)"
molecule=O=C(/C=C/c1ccco1)Nc1ncc(Cc2cccc(C(F)(F)F)c2)s1 reported_property=growth observed="33.2% (inactive)"

Give growth for each of the items listed below.
1. CCOC(=O)C(=O)C(C(=O)OCC)c1ccccc1 (centres undefined)
2. O=C1/C(=C/c2cn(-c3ccccc3)nc2-c2ccccc2)SC(=S)N1C1CCCCC1

Result:
1. 103% (inactive)
2. 102% (inactive)

Give growth for each of the items listed below.
1. O=S(=O)(Nc1cc(F)cc(Cl)c1)c1ccc(-c2cnc(C3CC3)o2)cc1
2. N#Cc1ccc(O)c(C2=NCC(c3cccc(Oc4ccccc4)c3)O2)c1 (centres undefined)
3. COc1ccc(Nc2ncc(Br)c(NCCCNC(=O)C3CCCC3)n2)cc1
4. N#Cc1c(-c2ccccc2)[nH]c2ncc(-c3ccccc3)n2c1=O
5. CCOC(=O)C#Cc1c(C(=O)OCC)nnn1Cc1ccc([N+](=O)[O-])cc1

Result:
1. 59.5% (inactive)
2. 23.1% (inactive)
3. 21.6% (inactive)
4. 91.7% (inactive)
5. 87.4% (inactive)

Give growth for each of the items listed below.
1. O=C(NCCNc1nccc(Nc2ccc(S(=O)(=O)Nc3ccccn3)cc2)n1)c1cccc([N+](=O)[O-])c1
2. COc1cc2oc(-c3cccc(NC(=O)c4ccccc4)c3)cc(=O)c2c(OC)c1OC

Result:
["104% (inactive)", "72.3% (inactive)"]

---

system: COLO 205 colon; test: NCI-60 one-dose screen, 48 h (100 = growth as untreated, 0 = no growth, -100 = all killed); conditions: 10 µM unless noted
The panel holds about 83,000 compounds, 20% with a hit somewhere; the sample as a whole holds those more often.
reported_property: growth (%)
Numbers only, in %.

molecule=Cc1ccc(C[P+](c2ccccc2)(c2ccccc2)c2ccccc2)cc1 reported_property=growth observed=-15.5
molecule=C#CCOc1cccc(Nc2ncnc3ccc(NC(=O)C=C)cc23)c1 reported_property=growth observed=68.4
molecule=O=C1c2ccc3c4c5ccc(c24)C(=O)N1CCCOCCCCOCCCNCc1ccc(cc1)CNCCCOCCCCOCCCN(C3=O)C5=O reported_property=growth observed=-71
molecule=C#CCOC(=O)/C=C/c1cn(-c2ccccc2)nc1-c1ccc(OC)cc1 reported_property=growth observed=121
molecule="CC(C)=CCCC(C)c1ccc(C)c2c1OCN(CCCCCO)C2 (configuration not stated)" reported_property=growth observed=90
molecule=N#Cc1nc(-c2ccc(Cl)cc2)oc1S(=O)(=O)N1CCN(c2ccc(F)cc2)CC1 reported_property=growth observed=102

Give growth for each of the items listed below.
1. CC(=O)n1nc(C(=O)OC(C)(C)c2ccccc2)c2ccccc21
2. C=C(CBr)[C@@H]1CC[C@]2(C(=O)O)CC[C@]3(C)[C@H](CC[C@@H]4[C@@]5(C)CCC(=O)C(C)(C)[C@@H]5CC[C@]43C)[C@@H]12

Result:
1: 107; 2: 99.9
